# System: MS2 coat protein
# assayProtocol: apparent Kd, MS2 coat protein; higher = weaker binding; RNA-MaP array
# assayContext: designed as: ON switch for flavin mononucleotide; no ligand
quantity: apparent Kd (µM)
One number for each entry, in µM.

Use the examples below as a reference point.
| macromoleculeSequence | value |
| --- | --- |
| UCUCAAAUAAAUAUCAUACAUGAGGAUCACCCAUGUCACCGAUAGGAUAUGCGCGUUUCCCACCUGCAGAAGGAUCAAACUGUA | 0.0154 |
| ACUACAUGCGAAUACAUGAGGAUCACCCAUGUCCAUAAGACCUAGGAUAUCCAGUAACCCUGCAAGGAGAAGGAGGAGAGCACU | 0.0254 |
| CCAGUGGGUGGAGGAUAUGAUGACAAACUGUGUUCAGAAGGCCACCUCAAGACACGAACAUGAGGAUCACCCAUGUCCCAACCU | 0.227 |
| GUUAAAGAACGAGGAUAUAUUUGGUGAGGAGUACACAUGAGGAUCACCCAUGUCCAUCCUAUUCCAUAGAAGGCGUAGAGUUUU | 0.00671 |
| AGACCCUAGCAGAAGGCCCGCGACAUCCAAGAGGGAGGAUAUGCCACUAGAGCAAGCUUUGCACAUGAGGAUCACCCAUGUCCU | 0.132 |

Take each entry in turn and give its apparent Kd.
1. AAACGACAUGAGGAUCACCCAUGUACCUUUUACCUAGGAUAUCAGGUGCAUCAUACGUGCUGAGAAGGAGGCUCGC
2. ACAAGAGUAAAACAUACAUGAGGAUCACCCAUGUUAUCAACAAAGGAUAUCGUUGUGGUAGGGAACGAGAAGGUUGCAAAAUCA

1. 0.0641
2. 0.0154

* * *

# Tested on: MS2 coat protein
# assayProtocol: apparent Kd, MS2 coat protein; higher = weaker binding; RNA-MaP array; FMN 200 µM where present
# assayContext: designed as: ON switch for flavin mononucleotide; no ligand
// bucketize apparent Kd: lower band: < 0.03 µM; central band: ≥ 0.03 µM and < 0.08 µM; upper band: ≥ 0.08 µM

Field: example entries. Status: answers known.
| macromoleculeSequence | targetOrTestSystem | labelClass |
| --- | --- | --- |
| UAUAGUGGCGUAGGAUAUCUGCGUACAUGAGGAUCACCCAUGUCUCCCAGCAGCUGAUCUGGGACAGAGAAGGGCGACCGCAUA | MS2 coat protein | upper band |
| AGGAUACACCAGAAGGACAUGAGGAUCACCCAUGUAGGAUAUGGGUACGCCGACAUUAGUCUGCUCUCGGUAGACUUUCCUGAU | MS2 coat protein | central band |
| UUUAAUCGAAACAUGAGGAUCACCCAUGUGUUGUAAUUAACAUAGGAUAUUUGUAUACUUUUGUAAGAGAAGGAUGAUAAUACU | MS2 coat protein | lower band |
| UCGACCAGCGCCGCUCGAACAUGAGGAUCACCCAUGUACUCCAGAAGGCCGCCCAAGUACGGAGUGGAGGAUAUGGAGGUUCUC | MS2 coat protein | central band |
| GGAUGAUUAAUAGGAUAUUAGUUGUAAAAUGGUUAAGAAGGAUUAAUGAUUUAAACGACCAGUUACAUGAGGAUCACCCAUGUA | MS2 coat protein | lower band |
| ACACAUGAGGAUCACCCAUGUACUCGACACAUUCAUUGGGCACAGGAUAUACGGUGAAGUCUUUCGUAGAAGGGUGCUAGUGUG | MS2 coat protein | upper band |
| AACAGGUUCACAUGAGGAUCACCCAUGUUAGCCUAACGUAGGAGAAGGGCGGUAGCUGGGCUGACGUAGGAUAUCCUACUGUGA | MS2 coat protein | lower band |
| GUCAUCAUAUGAGGAUAUGACACCGAAACGGUGUCAGAAGGCAUGUCGAUAGACAUGAGGAUCACCCAUGUUUACAUGAUGACA | MS2 coat protein | upper band |
| AGCUACGUUUCGUAGCAGUGUCAUCGAGAAGGCUCAUAAACAUGAGGAUCACCCAUGUAUUCAUGGGAGGAUAUCGAUGAUACA | MS2 coat protein | central band |

Using the reported apparent Kd, which band applies to CAUGUCCUCACAGGAUAUGCACCACUUUGUGGUGCAGAAGGGUGAAUACAUGAGGAUCACCCAUGUGGACAUGAUAUAUUUAAU ?
upper band
